B1: TPR t1 (parent)
chain: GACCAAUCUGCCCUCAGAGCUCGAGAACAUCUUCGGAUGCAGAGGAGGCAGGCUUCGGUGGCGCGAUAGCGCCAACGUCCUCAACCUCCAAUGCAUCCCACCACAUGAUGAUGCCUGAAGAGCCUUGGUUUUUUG

- Variants of: B1
- ASSAY_INFO: polymerase ribozyme fitness, log enrichment relative to wild type (log ratio); higher = more active; in vitro selection for triplet polymerase activity
MEASUREMENT_NAME: polymerase ribozyme fitness (log ratio)
Lab note: jot down the number only; don't add units.

| VARIANT_DESCRIPTION | MEASUREMENT_NAME | READING |
| --- | --- | --- |
| G51A G60U G113A U116A | polymerase ribozyme fitness (log ratio) | -7.25 |
| U54C G61U G71U C82U A83U C114U | polymerase ribozyme fitness (log ratio) | -5.85 |
| U7A C11A G77A U81G | polymerase ribozyme fitness (log ratio) | -1.65 |
| G63U U129C | polymerase ribozyme fitness (log ratio) | -1.11 |
| C73A G117U | polymerase ribozyme fitness (log ratio) | -2.74 |

[ask] Provide measured polymerase ribozyme fitness (log ratio) value, entry: G42A G61U
[reply] -2.48

[ask] Provide measured polymerase ribozyme fitness (log ratio) value, entry: C13U A84U G113U U116A A119G G135U
[reply] -6.59

[ask] Provide measured polymerase ribozyme fitness (log ratio) value, entry: G44A C98A A111U
[reply] -5.83

[ask] Provide measured polymerase ribozyme fitness (log ratio) value, entry: C80A U109A
[reply] -6.3

[ask] Provide measured polymerase ribozyme fitness (log ratio) value, entry: C11U C13U U32C
[reply] -1.05

[ask] Provide measured polymerase ribozyme fitness (log ratio) value, entry: C73U A74G C99U
[reply] -3.36
